# Test system: HCT-15 colon
# method.summary: NCI tumour cell line growth inhibition, 48 h
assay.readout: TGI (µM)
Write the number in µM without appending the unit.

[in] Which value of TGI has been reported for "O=C(NO)c1ccc(-c2nc3ccc4[nH]ncc4c3c3c2CCCC3)cc1" in the records?
[out] 8.57

[in] Another: "CC(C)C[C@H](NC(=O)CNC(=O)C[C@H]1O[C@@H]2OC3(C)CC[C@H]4[C@H](C)CC[C@@H]([C@H]1C)[C@@]24O3)B(O)O"
[out] 24.1

* * *

# Tested on: MDA-MB-468 breast
# method.summary: NCI tumour cell line growth inhibition, 48 h
Classification field: Criterion met = TGI at or over 5 µM; Criterion not met = TGI under 5 µM.

[in] Record "O=c1c2cc(F)ccc2sc2c(NCCCNCCO)nc3ccccc3c12" ; criterion: TGI no lower than 5 µM. Met?
[out] Criterion not met

[in] Query CC1c2ccccc2CCN1c1ccc(CO)c(Cl)c1 (stereo not drawn) next
[out] Criterion not met

[in] Now try "O=C(CSc1nnc(-c2ccc(Cl)cc2)n1-c1ccccc1)Nc1ccc(Cl)cc1" .
[out] Criterion met

[in] Now this one: CCN1C(=O)N(CC)C2C1NN=c1s/c(=C\c3ccc(F)cc3)c(=O)n12 (stereo not drawn)
[out] Criterion met

[in] Next: CC1C=CC(OC(=O)C(C)(O)CCC(O)(C(=O)OC2CC(O)C(C(C)C)CC2(C)O)C(C)C)(C(C)C)CC1 (stereo not drawn)
[out] Criterion not met

[in] // query: "C=CCc1cc(Nc2c3ccc(Cl)cc3nc3ccc(OC)cc23)cc(CN(CC)CC)c1O"
[out] Criterion not met

[in] Same thing, different compound: "O=C1C(OCCOc2ccccc2)=C(OCCOc2ccccc2)C(=O)c2ccccc21"
[out] Criterion met
